From: ChEMBL document CHEMBL1131324

Target: UniProt:Q6Q253
Sequence (Q6Q253 whole entry): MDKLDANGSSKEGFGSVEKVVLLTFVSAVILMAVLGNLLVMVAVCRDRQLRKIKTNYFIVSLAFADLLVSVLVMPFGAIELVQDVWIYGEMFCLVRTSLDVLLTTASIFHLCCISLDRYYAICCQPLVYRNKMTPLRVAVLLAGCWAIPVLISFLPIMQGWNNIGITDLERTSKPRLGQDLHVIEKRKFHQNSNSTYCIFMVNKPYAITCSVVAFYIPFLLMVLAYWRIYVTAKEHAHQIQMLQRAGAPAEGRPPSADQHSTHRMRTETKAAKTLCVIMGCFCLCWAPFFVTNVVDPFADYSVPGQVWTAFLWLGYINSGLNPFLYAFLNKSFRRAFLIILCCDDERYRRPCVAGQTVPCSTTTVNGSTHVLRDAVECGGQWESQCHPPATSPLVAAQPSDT
pKi: −log10 of the molar value.
recorded metric: pKi

# input Tell me pKi reported for Cc1nc(-c2ccc(-c3ccc(C(=O)N4CCc5cc6c(cc54)C4(CCN(C)CC4)CO6)cc3)c(C)c2)no1
# output < 6.00

----------
Target: Muscarinic acetylcholine receptor M1 (Homo sapiens, UniProt P11229)
Sequence (P11229 whole entry): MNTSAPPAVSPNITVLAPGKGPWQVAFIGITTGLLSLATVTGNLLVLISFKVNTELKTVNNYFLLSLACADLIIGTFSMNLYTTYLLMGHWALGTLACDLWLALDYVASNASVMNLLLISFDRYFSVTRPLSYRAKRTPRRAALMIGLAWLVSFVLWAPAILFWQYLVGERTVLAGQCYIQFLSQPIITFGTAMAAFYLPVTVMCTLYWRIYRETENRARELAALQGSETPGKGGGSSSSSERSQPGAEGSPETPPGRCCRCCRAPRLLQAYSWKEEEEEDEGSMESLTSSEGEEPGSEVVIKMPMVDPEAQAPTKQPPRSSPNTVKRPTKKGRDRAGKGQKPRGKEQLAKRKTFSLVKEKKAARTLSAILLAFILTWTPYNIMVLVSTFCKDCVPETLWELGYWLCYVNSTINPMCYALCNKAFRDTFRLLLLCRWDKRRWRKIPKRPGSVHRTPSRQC
pKi: −log10 of the molar value.
recorded metric: pKi

# input Please supply the value of reported pKi for the item Cc1nc(-c2ccc(-c3ccc(C(=O)N4CCc5cc6c(cc54)C4(CCN(C)CC4)CO6)cc3)c(C)c2)no1
# output < 6.00

----------
Biological target: Muscarinic acetylcholine receptor M2 (Homo sapiens, UniProt P08172)
Sequence (P08172 whole entry): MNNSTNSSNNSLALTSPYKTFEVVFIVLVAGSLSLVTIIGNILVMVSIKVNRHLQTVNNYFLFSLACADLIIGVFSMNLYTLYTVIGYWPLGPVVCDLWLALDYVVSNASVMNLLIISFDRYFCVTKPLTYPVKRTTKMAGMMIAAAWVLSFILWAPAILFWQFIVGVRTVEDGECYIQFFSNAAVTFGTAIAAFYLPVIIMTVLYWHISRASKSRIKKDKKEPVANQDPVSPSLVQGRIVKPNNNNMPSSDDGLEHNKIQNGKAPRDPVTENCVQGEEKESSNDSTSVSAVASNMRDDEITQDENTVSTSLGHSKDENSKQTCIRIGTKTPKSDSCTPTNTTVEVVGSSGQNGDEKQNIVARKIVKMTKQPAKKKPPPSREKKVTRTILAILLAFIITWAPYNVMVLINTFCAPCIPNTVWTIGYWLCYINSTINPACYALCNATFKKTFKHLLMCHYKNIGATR
pKi: −log10 of the molar value.
recorded metric: pKi

# input Using the record for Cc1nc(-c2ccc(-c3ccc(C(=O)N4CCc5cc6c(cc54)C4(CCN(C)CC4)CO6)cc3)c(C)c2)no1 , state its measured pKi.
# output < 6.00

----------
Molecular target: Beta-1 adrenergic receptor (Homo sapiens, UniProt P08588)
Sequence (P08588 whole entry): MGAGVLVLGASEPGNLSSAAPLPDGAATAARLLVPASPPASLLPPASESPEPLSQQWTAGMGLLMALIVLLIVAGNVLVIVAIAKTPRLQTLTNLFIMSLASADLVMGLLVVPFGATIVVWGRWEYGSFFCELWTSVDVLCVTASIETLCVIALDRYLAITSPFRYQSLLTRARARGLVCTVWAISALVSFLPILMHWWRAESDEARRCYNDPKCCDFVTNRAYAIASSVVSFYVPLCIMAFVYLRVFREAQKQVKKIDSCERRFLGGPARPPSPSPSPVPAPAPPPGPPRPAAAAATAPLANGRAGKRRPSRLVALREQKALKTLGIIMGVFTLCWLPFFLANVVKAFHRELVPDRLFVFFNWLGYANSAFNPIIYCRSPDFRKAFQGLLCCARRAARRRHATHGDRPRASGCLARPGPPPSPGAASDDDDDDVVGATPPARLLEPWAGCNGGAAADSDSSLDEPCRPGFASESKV
recorded metric: Ki

# input Tell me its Ki given Cc1nc(-c2ccc(-c3ccc(C(=O)N4CCc5cc6c(cc54)C4(CCN(C)CC4)CO6)cc3)c(C)c2)no1 as the entry.
# output > 1 µM

----------
Molecular target: 5-hydroxytryptamine receptor 2A (Homo sapiens, UniProt P28223)
Sequence (P28223 whole entry): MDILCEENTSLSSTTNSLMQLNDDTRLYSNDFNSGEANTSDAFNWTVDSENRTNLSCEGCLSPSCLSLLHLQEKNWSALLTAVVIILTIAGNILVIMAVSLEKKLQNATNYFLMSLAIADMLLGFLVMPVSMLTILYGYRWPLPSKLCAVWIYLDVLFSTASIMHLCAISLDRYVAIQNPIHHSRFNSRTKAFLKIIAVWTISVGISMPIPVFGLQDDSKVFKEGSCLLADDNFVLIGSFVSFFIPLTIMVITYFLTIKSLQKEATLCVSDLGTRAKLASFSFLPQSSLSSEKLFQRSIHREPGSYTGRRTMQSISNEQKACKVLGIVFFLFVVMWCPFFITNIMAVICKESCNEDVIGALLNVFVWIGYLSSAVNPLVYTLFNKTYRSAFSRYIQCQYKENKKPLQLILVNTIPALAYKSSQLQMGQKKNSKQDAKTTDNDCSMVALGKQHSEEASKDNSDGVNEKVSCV
Experiment: Binding affinity for human 5-hydroxytryptamine 2A receptor
Define the label as Criterion met when Ki is strictly less than 6 nM and as Criterion not met in all remaining cases.

Completed entries (count: 5):
given smiles	tested on	class
COc1ccc(NC(=O)c2ccc(Br)c(C)c2)cc1N1CCN(C)CC1	5-hydroxytryptamine receptor 2A (Homo sapiens, UniProt P28223)	Criterion not met
Cc1nc(-c2ccc(-c3ccc(C(=O)Nc4ccc5c(c4)C4(CCN(C)CC4)CO5)cc3)c(C)c2)no1	5-hydroxytryptamine receptor 2A (Homo sapiens, UniProt P28223)	Criterion not met
COc1ccc(NC(=O)c2ccc(-c3ccc(-c4noc(C)n4)cc3C)cc2)cc1CCCN(C)C	5-hydroxytryptamine receptor 2A (Homo sapiens, UniProt P28223)	Criterion not met
Cc1nc(-c2ccc(-c3ccc(C(=O)N4CCc5cc6c(cc54)C4(CCN(C)CC4)CO6)cc3)c(C)c2)no1	5-hydroxytryptamine receptor 2A (Homo sapiens, UniProt P28223)	Criterion not met
Cc1cc(C(=O)Nc2cccc(N3CCN(C)CC3)c2)ccc1Br	5-hydroxytryptamine receptor 2A (Homo sapiens, UniProt P28223)	Criterion not met

// switching to the query molecule
# input In the record for Cc1nc(-c2ccc(-c3ccc(C(=O)Nc4ccc5c(c4)N(CCN(C)C)CCO5)cc3)c(C)c2)no1 , is Ki less than 6 nM?
# output Criterion met

----------
Target: Alpha-2A adrenergic receptor (Homo sapiens, UniProt P08913)
Sequence (P08913 whole entry): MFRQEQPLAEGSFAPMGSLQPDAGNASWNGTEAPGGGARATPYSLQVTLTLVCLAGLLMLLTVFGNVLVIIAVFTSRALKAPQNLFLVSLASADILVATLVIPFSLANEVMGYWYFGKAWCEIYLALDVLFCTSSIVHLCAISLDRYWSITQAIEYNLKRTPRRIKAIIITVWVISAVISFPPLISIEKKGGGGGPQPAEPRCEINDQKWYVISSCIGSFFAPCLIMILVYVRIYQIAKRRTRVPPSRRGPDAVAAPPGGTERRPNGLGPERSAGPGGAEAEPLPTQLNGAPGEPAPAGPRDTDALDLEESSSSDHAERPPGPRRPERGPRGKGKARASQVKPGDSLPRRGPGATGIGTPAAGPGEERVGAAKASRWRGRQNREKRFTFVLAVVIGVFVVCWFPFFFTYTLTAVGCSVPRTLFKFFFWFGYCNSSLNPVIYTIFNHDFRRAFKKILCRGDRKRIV
recorded metric: Ki

# input Under Alpha-2A adrenergic receptor (Homo sapiens, UniProt P08913): report Ki of Cc1nc(-c2ccc(-c3ccc(C(=O)N4CCc5cc6c(cc54)C4(CCN(C)CC4)CO6)cc3)c(C)c2)no1 [SB-224289] .
# output > 1000 nM

----------
Target: Histamine H2 receptor (Cavia porcellus, UniProt P47747)
Sequence (P47747 whole entry): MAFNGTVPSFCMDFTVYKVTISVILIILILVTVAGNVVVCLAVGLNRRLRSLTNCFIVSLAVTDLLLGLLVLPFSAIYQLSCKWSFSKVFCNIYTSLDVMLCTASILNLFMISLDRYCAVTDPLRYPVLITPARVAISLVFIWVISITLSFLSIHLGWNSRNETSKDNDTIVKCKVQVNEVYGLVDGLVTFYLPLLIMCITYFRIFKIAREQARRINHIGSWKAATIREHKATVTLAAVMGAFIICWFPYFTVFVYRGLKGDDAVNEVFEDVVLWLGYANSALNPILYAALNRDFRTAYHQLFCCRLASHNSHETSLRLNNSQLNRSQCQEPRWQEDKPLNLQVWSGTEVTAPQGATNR
Assay: Compound was tested for binding affinity towards Histamine H2 receptor
pKi: −log10 of the molar value.
recorded metric: pKi

# input Give the reported pKi for this compound. Cc1nc(-c2ccc(-c3ccc(C(=O)N4CCc5cc6c(cc54)C4(CCN(C)CC4)CO6)cc3)c(C)c2)no1 [SB-224289]
# output < 6.00

----------
Target: 5-hydroxytryptamine receptor 1E (Homo sapiens)
Sequence (P28566 whole entry): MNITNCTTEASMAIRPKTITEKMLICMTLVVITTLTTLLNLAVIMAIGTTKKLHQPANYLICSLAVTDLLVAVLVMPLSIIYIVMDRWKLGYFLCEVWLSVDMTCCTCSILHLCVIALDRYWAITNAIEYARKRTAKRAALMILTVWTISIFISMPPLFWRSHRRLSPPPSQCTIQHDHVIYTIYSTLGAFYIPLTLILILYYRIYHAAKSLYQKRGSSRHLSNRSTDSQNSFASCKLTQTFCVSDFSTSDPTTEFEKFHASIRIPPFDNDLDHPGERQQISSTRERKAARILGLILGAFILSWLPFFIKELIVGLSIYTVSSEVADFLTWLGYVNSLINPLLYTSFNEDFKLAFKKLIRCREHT
recorded metric: Ki

# input Output Ki of Cc1nc(-c2ccc(-c3ccc(C(=O)N4CCc5cc6c(cc54)C4(CCN(C)CC4)CO6)cc3)c(C)c2)no1 [SB-224289]
# output > 10 µM

----------
Molecular target: Alpha-2B adrenergic receptor (Mus musculus)
Sequence (P30545 whole entry): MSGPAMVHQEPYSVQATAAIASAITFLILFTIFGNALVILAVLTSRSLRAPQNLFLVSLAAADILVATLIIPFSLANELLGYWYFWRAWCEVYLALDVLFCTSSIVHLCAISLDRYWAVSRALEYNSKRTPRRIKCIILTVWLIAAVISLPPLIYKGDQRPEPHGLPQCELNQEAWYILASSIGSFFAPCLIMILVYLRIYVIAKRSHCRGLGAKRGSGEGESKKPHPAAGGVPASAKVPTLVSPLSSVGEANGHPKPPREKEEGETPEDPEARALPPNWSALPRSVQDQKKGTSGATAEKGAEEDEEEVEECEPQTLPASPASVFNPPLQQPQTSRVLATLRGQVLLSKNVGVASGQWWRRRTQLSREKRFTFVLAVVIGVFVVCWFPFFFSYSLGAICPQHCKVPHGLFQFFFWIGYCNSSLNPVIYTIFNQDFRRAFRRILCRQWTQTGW
pKi: −log10 of the molar value.
recorded metric: pKi

# input Return the recorded pKi value; entry: Cc1nc(-c2ccc(-c3ccc(C(=O)N4CCc5cc6c(cc54)C4(CCN(C)CC4)CO6)cc3)c(C)c2)no1
# output < 6.00

----------
Data export: pKi values recorded with 5-hydroxytryptamine receptor 1D (Homo sapiens, UniProt P28221).
Sequence (P28221 whole entry): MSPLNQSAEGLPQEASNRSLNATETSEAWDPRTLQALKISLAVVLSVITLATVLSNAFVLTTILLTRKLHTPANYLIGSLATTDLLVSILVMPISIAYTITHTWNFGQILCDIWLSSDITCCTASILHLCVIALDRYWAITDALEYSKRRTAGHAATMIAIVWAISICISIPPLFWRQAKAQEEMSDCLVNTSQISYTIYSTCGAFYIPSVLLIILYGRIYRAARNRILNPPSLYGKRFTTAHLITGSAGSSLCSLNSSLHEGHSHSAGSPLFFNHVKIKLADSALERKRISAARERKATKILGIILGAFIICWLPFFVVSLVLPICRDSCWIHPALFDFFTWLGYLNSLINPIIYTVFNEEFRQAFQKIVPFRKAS
Numbers only, as −log10 of the molar value.

given smiles	pKi
COc1ccc(NC(=O)c2ccc(-c3ccc(-c4noc(C)n4)cc3C)cc2)cc1NCCN(C)C	7.40

Provide pKi values for the following items, in order.
1. Cc1cc(C(=O)Nc2cccc(N3CCN(C)CC3)c2)ccc1Br
2. Cc1nc(-c2ccc(-c3ccc(C(=O)Nc4ccc5c(c4)C4(CCN(C)CC4)CO5)cc3)c(C)c2)no1
3. COc1ccc(NC(=O)c2ccc(-c3ccc(-c4noc(C)n4)cc3C)cc2)cc1CCCN(C)C
4. COc1ccc(NC(=O)c2ccc(Br)c(C)c2)cc1N1CCN(C)CC1

# output
[6.70, 5.70, 7.00, 7.90]

Please give pKi for each item listed below.
1. COc1ccc(NC(=O)c2ccc(-c3ccc(-c4noc(C)n4)cc3C)cc2)cc1OCCN(C)C
2. Cc1nc(-c2ccc(-c3ccc(C(=O)Nc4cc5c(c(OCCN(C)C)c4)OCC5)cc3)c(C)c2)no1

# output
1: 7.50; 2: 7.60

----------
Target: UniProtKB P15823
Sequence (P15823 whole entry): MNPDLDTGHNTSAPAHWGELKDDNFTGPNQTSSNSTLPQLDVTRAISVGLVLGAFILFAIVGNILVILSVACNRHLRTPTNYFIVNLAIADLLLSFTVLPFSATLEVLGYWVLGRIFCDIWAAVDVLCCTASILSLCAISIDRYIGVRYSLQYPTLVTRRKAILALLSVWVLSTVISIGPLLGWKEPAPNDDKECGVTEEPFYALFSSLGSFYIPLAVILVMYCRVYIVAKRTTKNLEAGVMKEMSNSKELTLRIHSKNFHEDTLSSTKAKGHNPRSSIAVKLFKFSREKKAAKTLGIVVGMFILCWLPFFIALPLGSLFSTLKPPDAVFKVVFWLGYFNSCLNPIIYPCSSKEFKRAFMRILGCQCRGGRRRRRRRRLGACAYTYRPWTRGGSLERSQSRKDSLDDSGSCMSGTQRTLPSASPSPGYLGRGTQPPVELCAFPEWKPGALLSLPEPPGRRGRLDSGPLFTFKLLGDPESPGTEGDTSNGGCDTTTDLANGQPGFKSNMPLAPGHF
recorded metric: Ki

# input For the compound Cc1nc(-c2ccc(-c3ccc(C(=O)N4CCc5cc6c(cc54)C4(CCN(C)CC4)CO6)cc3)c(C)c2)no1 , give its reported Ki.
# output > 1000 nM

----------
Target: D(2) dopamine receptor (Homo sapiens, UniProt P14416)
Sequence (P14416 whole entry): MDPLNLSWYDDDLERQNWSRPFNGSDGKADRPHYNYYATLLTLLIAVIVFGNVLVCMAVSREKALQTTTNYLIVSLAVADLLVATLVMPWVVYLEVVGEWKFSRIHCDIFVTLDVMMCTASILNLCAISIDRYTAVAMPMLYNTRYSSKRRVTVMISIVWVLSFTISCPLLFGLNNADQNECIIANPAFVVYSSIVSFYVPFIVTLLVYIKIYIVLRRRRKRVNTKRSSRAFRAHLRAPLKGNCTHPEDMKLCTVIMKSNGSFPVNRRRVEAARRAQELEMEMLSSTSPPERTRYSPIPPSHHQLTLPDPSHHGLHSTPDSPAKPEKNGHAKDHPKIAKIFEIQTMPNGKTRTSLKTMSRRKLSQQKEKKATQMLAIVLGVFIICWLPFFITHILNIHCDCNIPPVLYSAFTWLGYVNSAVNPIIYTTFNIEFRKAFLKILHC
Test: Compound was tested for binding affinity against human cloned Dopamine receptor D2
pKi: −log10 of the molar value.
recorded metric: pKi

# input Query pKi for Cc1nc(-c2ccc(-c3ccc(C(=O)N4CCc5cc6c(cc54)C4(CCN(C)CC4)CO6)cc3)c(C)c2)no1
# output < 6.00

----------
Target: 5-hydroxytryptamine receptor 1B (Homo sapiens, UniProt P28222)
Sequence (P28222 whole entry): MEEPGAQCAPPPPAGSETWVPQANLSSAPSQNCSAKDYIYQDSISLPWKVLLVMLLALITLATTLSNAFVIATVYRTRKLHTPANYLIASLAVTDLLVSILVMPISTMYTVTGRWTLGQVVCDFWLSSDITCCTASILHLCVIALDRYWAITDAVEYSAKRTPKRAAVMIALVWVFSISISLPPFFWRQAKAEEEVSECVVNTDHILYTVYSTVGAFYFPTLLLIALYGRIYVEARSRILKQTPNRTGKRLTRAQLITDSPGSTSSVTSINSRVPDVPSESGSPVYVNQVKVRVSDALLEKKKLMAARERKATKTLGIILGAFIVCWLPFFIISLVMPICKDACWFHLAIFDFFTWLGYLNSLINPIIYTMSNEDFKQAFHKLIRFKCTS
Assay: Effect of compound on [35S]GTP-gamma-S, radioligand binding CHO cells expressing human 5-hydroxytryptamine 1B receptor
Format: functional, cell-based
recorded metric: [35S]GTPγS binding stimulation (%)
Numbers only, in %.

Answered examples (4):
given smiles	[35S]GTPγS binding stimulation [%]
COc1ccc(NC(=O)c2ccc(-c3ccc(-c4noc(C)n4)cc3C)cc2)cc1NCCN(C)C	108
Cc1nc(-c2ccc(-c3ccc(C(=O)Nc4ccc5c(c4)C4(CCN(C)CC4)CO5)cc3)c(C)c2)no1	-64
COc1ccc(NC(=O)c2ccc(-c3ccc(-c4noc(C)n4)cc3C)cc2)cc1CCCN(C)C	-44
Cc1nc(-c2ccc(-c3ccc(C(=O)Nc4ccc5c(c4)N(CCN(C)C)CCO5)cc3)c(C)c2)no1	91

Could I get [35S]GTPγS binding stimulation for every one of these entries?
1. COc1ccc(NC(=O)c2ccc(-c3ccc(-c4noc(C)n4)cc3C)cc2)cc1OCCN(C)C
2. Cc1nc(-c2ccc(-c3ccc(C(=O)Nc4cc5c(c(OCCN(C)C)c4)OCC5)cc3)c(C)c2)no1

# output
1. 139
2. 207
